Where do these numbers come from? They come from PubChem BioAssay (NCI).

# Tested on: MCF7 breast
# assay comment: NCI tumour cell line growth inhibition, 48 h
The reader will find reported TGI values listed item by item below.

compound | TGI
COc1cc2c3c(n(CCCN4CCN(C)CC4)c(=O)c2cc1OC)-c1cc2c(cc1C3=O)OCO2 | 64.8 µM
COc1c2ccccc2c(O)c2c(=O)c(C(=O)O)cn(C)c12 | > 100 µM
N[C@@H]1c2c(Br)sc(Br)c2[C@H](O)[C@@H]1O | > 100 µM
NC1CC2C3CCC2C1C3=O (stereo not given) | > 100 µM
CC(C)(C)NC(NC(C)(C)C)=C(C(Cl)=C(Cl)Cl)[N+](=O)[O-] | > 100 µM
CCOC(=O)c1c(C)n(Cc2ccccc2)c2c1cc(O)c1[nH]c3c(c12)CCCC3 | 13.3 µM
N=c1c2c3n(c4c(=O)n(-c5ccccc5)c(=S)n(c(=O)n1-c1ccccc1)c24)CCCCC3 | > 100 µM
COc1ccc(-c2cc(-c3ccc(Nc4ccnc5cc(C(F)(F)F)ccc45)cc3)[nH]c(=O)c2C#N)c2ccccc12 | > 100 µM
COc1cc(-c2oc3c(OC)c(OC)cc(O)c3c(=O)c2OC)ccc1O | > 50 µM
COc1cc2c3c(n(CCN)c(=O)c2cc1OC)-c1cc2c(cc1C3=O)OCO2 | 2.98 µM

----------
# Test system: M14 melanoma
# assay comment: NCI tumour cell line growth inhibition, 48 h; in the data active = GI50 below about 0.43 µM; inactive = the rest
Labels: label 1 = active, label 0 = inactive

structure | category
COC(=O)[C@]12CC[C@@H](C)[C@H](C)[C@@H]1C1=CC[C@@H]3[C@@]4(C)C(C=O)=C[C@@](C)(COC(C)=O)[C@@H]4[C@H](O)C[C@@]3(C)[C@]1(C)CC2 | label 0
COc1ccc2cc(C(=O)/C=C/c3cccc(Cl)c3Cl)ccc2c1 | label 0
Nc1ccc(C#Cc2cncnc2Nc2ccc(OCc3cccc(F)c3)c(Cl)c2)cc1 | label 0
Cc1cc(S(=O)(=O)Nc2nc3ccsc3c(=O)n2Cc2ccco2)c(S)cc1Cl | label 0
COc1cc2c3c(n(CCCN)c(=O)c2cc1OC)-c1ccc(F)cc1C3=O | label 0
CC[N+](CC)=c1ccc2nc3c(cc(NCc4ccccc4)c4ccccc43)oc-2c1 | label 1
O=C1c2ccccc2S(=O)(=O)N1CSC(=S)N1CCCC1 | label 0
C=C1C(=O)O[C@H]2[C@H]1CC/C(COC(=O)C(=O)c1c[nH]c3ccc(OC)cc13)=C\CC[C@@]1(C)O[C@@H]21 | label 0
COc1cc2c3c(n(CCN)c(=O)c2cc1OC)-c1cc2c(cc1C3=O)OCO2 | label 1
O=C([O-])c1ccc2c(c1)-c1nc-2nc2[n-]c(nc3nc(nc4[n-]c(n1)c1ccc(C(=O)[O-])cc41)-c1cc(C(=O)[O-])ccc1-3)c1ccc(C(=O)[O-])cc21.[Fe+2] | label 0
C=C(CN1CCN(c2cccc(C(F)(F)F)c2)CC1)c1ccc(C(=O)Nc2ccccc2N)cc1 | label 0
COc1cc(NN=C(c2ccc(O)cc2)c2ccc(O)cc2)c([N+](=O)[O-])cc1[N+](=O)[O-] | label 0

----------
# System: NCI-H23 lung
# assay comment: NCI tumour cell line growth inhibition, 48 h

molecule | assayed target | GI50
O=C1c2cccnc2-c2nc(/C=C/c3ccccc3)cc3c2c1nc1ccccc13 | NCI-H23 lung | 1600 nM
CC(=O)OCC1OC(OC2CC3C(C)(C)C(OC(C)=O)CC[C@]3(C)C3CCC45CC4(CC[C@H]5C(C)CC(O)C4OC4(C)C)[C@]23C)C(O)C(O)C1O (stereo not given in full) | NCI-H23 lung | 2550 nM
O=C(Nc1cnn2ccc(N3CCC[C@@H]3c3cc(F)ccc3F)nc12)N1CC[C@H](O)C1 | NCI-H23 lung | > 100000 nM
COC(=O)c1c2c(c(C)[n+]([O-])c1C)C(=O)C=C(NCc1cccc(OC)c1)C2=O | NCI-H23 lung | 515 nM
O=C1/C(=C/c2ccccc2)SC(=Nc2ccccc2)N1Nc1ccccc1 | NCI-H23 lung | 22600 nM
N#C/C(=C\c1ccc(Br)cc1)n1nnc2cccc(F)c21 | NCI-H23 lung | 1430 nM
N#C/C(=C/C=C(\Cl)c1ccc(Cl)cc1)C(N)=O | NCI-H23 lung | 2400 nM
CCOC(=O)/C=C1\SC(=Nc2ccc(C#N)cc2)N(CCN2C(=O)/C(=C/C(=O)OCC)SC2=Nc2ccc(C#N)cc2)C1=O | NCI-H23 lung | 3520 nM
NC1=NC(c2ccccc2)N=C(Nc2ccccc2)N1 (stereo not given) | NCI-H23 lung | > 100000 nM
CCCCCCCCOc1ccc(/C=N/Nc2cc(C)nc3ccc(Cl)cc23)cc1 | NCI-H23 lung | 1900 nM
